Molecular target: T1, Anti-CD28 Fab (SEQ ID NOs: 696, 697)
T1 construct: Biotinylated and captured on neutravidin coated plates in the phage ELISA
T1 sequence (VH, as listed by the source, chain 1 of 2): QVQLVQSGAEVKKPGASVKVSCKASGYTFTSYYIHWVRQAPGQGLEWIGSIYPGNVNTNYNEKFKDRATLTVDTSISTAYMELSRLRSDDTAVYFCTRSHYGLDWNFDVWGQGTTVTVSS
T1 sequence (VL, as listed by the source, chain 2 of 2): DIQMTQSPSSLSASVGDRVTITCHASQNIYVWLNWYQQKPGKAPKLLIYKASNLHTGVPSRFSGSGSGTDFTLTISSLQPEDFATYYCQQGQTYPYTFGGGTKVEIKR
Experiment: phage binding ELISA on captured anti-CD28 Fab; competitor CD28 antigen pre-incubated in the wells
reported_metric: Anti-CD28 Fab signal in the presence of CD28

DCWGDAPYPWRVCL (peptide, not shown: large carriers) [Phage-1506] : 0.07
TCAAGAYYAWPMCL (peptide, not shown: large carriers) [Phage-1517] : 0.07
SCAAGATYEWPRCL (peptide, not shown: large carriers) [Phage-1515] : 0.07
LCSAGAMYQWPTCL (peptide, not shown: large carriers) [Phage-1508] : 0.06
MCSAGATYPWPYCL (peptide, not shown: large carriers) [Phage-1504] : 0.1
SCSAVFSYAWPTCL (peptide, not shown: large carriers) [Phage-1511] : 0.08
TCAAGAGWQWPMCF (peptide, not shown: large carriers) [Phage-1514] : 0.11
TCAAGATWPWPSCL (peptide, not shown: large carriers) [Phage-1512] : 0.08
